- Test system: CAKI-1 renal
- test.description: NCI tumour cell line growth inhibition, 48 h; in the data active = GI50 below about 0.43 µM; inactive = the rest
Labels: active, inactive

INSERT INTO measurements (compound, label) VALUES
  ('COC1=C(C)C(=O)N2[C@@H]1[C@H](c1ccccc1)OC21C=CC(=O)C=C1', 'inactive'),
  ('COc1cc(/C=C/c2cc(/C=C/c3ccc(O)c(OC)c3)n(C(=O)Cc3ccccc3)n2)ccc1O', 'inactive'),
  ('Nc1nc(SCc2ccccc2)nc2[nH]ncc12', 'inactive'),
  ('CN(C)CCCNc1nc2ccccc2c2c(=O)c3cc(F)ccc3sc12', 'inactive'),
  ('Oc1ccc(OCCOc2ccc(O)cc2)cc1', 'inactive'),
  ('NCCCNc1nc2ccccc2c2c(=O)c3cccc(F)c3sc12', 'inactive'),
  ('COc1cc(Nc2cc(O)c3c(=O)cc(-c4ccccc4)oc3c2)cc(OC)c1', 'active'),
  ('COc1cc(C(=O)/C=C/c2c(-c3cccs3)nc3sccn23)cc(OC)c1OC', 'inactive'),
  ('COc1ccccc1/C=C/C(=O)c1ccc(Nc2nc(Nc3ccc(F)cc3)nc(Nc3ccc(F)cc3)n2)cc1', 'inactive'),
  ('COc1cc2c(Oc3ccc4[nH]c(C)cc4c3F)ncnc2cc1OCCCN1CCCC1', 'inactive'),
  ('C=C(C)[C@@H]1/C=C(/C(C)C)CC[C@@]2(C)OC2CC[C@H](C)CC1=O (stereo partly drawn)', 'inactive'),
  ('Cc1ccc(N(CC(=O)Nc2ccc(S(=O)(=O)NC3CCN(C)CC3)cc2)S(=O)(=O)c2ccc(Cl)cc2)cc1', 'inactive'),
  ('N#Cc1cc(-c2ccnc(Nc3ccc(NC(=O)CCl)cc3)n2)ccc1N1CCCC1', 'inactive');

---

- System: M14 melanoma
- test.description: NCI tumour cell line growth inhibition, 48 h
measurement.label: TGI

INSERT INTO assay_data (compound, result) VALUES
  ('COc1cc(/C=C/[N+](=O)[O-])c([N+](=O)[O-])cc1OC', '2.98 µM'),
  ('CS(=O)(=O)OCOS(C)(=O)=O', '> 100 µM'),
  ('COc1cc(Nc2ncc3c(C)nc(-c4cccc(C(F)(F)F)c4)n3n2)cc(OC)c1OC', '8.07 µM'),
  ('CC(=O)Nc1cccc2[nH]c3ccccc3c(=O)c12', '> 100 µM'),
  ('COc1ccc(/C=C/C(=O)c2c(O)c(C)c(O)c3c2OC2=CC(O)=C(C(C)=O)C(=O)[C@]23C)cc1', '4.82 µM'),
  ('C#CCn1c(=O)[nH]c(=O)c2cccnc21', '> 100 µM'),
  ('N#CNC1=NC(Cc2ccccc2)C(=O)N1CCc1c[nH]c2ccccc12 (stereo unspecified)', '> 100 µM'),
  ('NC(CCCCO)C(=O)O (stereo unspecified)', '> 100 µM'),
  ('CN(C)c1ccc(C2C(Cl)C(=O)N2NC(=O)c2c(Cl)c(Cl)c(Cl)c(Cl)c2-c2nc3ccccc3[nH]2)cc1 (stereo unspecified)', '51.7 µM'),
  ('COC(=O)[C@@H]1CCc2nc3ccccc3c(=O)n21', '> 100 µM'),
  ('C=CC(O)(CBr)CCC(Br)C(C)(C)Cl (stereo unspecified)', '> 10 µM');

---

- Tested on: SK-MEL-2 melanoma
- test.description: NCI tumour cell line growth inhibition, 48 h
measurement.label: TGI

INSERT INTO measurements (compound, target_of_assay, result) VALUES
  ('CC1=C(C)C(=O)C(C2=C(C3=CC(=O)C(C)=C(C)C3=O)C(=O)C(C)=C(C)C2=O)=CC1=O', 'SK-MEL-2 melanoma', '31 µM'),
  ('CC1(C)OC(C(C)(C)O)C(C(C)(C)O)O1 (stereo not given)', 'SK-MEL-2 melanoma', '> 100 µM'),
  ('c1ccc(COC2NCCN2Cc2ccccc2)cc1 (stereo not given)', 'SK-MEL-2 melanoma', '> 100 µM'),
  ('COc1cc(C(=O)/C=C/c2c(-c3cccs3)nc3sccn23)cc(OC)c1OC', 'SK-MEL-2 melanoma', '1.28 µM'),
  ('CCOC(=O)c1csc(NC(=O)CN2CCN(c3ccccc3)CC2)n1', 'SK-MEL-2 melanoma', '> 100 µM'),
  ('CO[C@H]1/C=C/[C@@](C)(O)/C=C/C(=O)O[C@H](C)[C@@H](C)CC/C=C/1C', 'SK-MEL-2 melanoma', '63.5 µM'),
  ('O=C(O)/C(=C/c1ccccc1)c1ccccc1', 'SK-MEL-2 melanoma', '> 100 µM'),
  ('CCC(=O)Nc1cccc(NC(=O)c2c(Cl)c(Cl)c(Cl)c(Cl)c2-c2nc3ccccc3[nH]2)c1', 'SK-MEL-2 melanoma', '> 100 µM'),
  ('CCOC(=O)NC(NCC(O)c1ccccc1)(C(F)(F)F)C(F)(F)F (stereo not given)', 'SK-MEL-2 melanoma', '> 100 µM'),
  ('Cc1cc2c(cc1O)[nH]c1cc3c(cc12)C=CC(C)(C)O3', 'SK-MEL-2 melanoma', '> 25 µM');
